# % CD28+ population per record follows
- assayed system: T1, human CD28 (human, UniProt P10747 19-220, On cells CD28 is a disulfide linked homodimer and a glycoprotein; one copy of the chain is given.)
- T1 construct: also called T-cell specific surface glycoprotein CD28
- T1 sequence (P10747 19-220 limits assumed): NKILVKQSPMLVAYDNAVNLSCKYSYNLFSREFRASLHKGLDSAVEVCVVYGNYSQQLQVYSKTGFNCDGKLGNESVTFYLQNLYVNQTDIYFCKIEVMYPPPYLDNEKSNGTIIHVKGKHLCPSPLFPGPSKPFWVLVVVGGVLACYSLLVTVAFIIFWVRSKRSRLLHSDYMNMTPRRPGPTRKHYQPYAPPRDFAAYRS
- method description: flow cytometry, PE-conjugated antibody on fresh human peripheral blood cells, CD3/CD28 gating
Numbers only; they are read as %.

Here are 2 binders together with their reported answers.
>>> recorded_value("exemplary anti-CD28 antibody AB3 (antibody, V domains shown, Mouse hybridoma monoclonal antibody; Conjugated to PE in the staining assays; also called antibody 3; clone 3) VH: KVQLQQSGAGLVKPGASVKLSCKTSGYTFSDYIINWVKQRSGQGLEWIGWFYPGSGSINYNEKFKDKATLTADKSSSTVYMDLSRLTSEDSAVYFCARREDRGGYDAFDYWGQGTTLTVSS VL: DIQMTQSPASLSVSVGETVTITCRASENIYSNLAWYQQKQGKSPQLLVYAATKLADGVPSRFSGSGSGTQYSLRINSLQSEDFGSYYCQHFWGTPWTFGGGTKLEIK")
65.7
>>> recorded_value("exemplary anti-CD28 antibody AB7 (antibody, V domains shown, Mouse hybridoma monoclonal antibody; Conjugated to PE in the staining assays; also called antibody 7; clone 7) VH: KVQLQQSGAGLVKPGASVKLSCKASGYTFSDYIINWVKQRSGQGLEWIGWFYPGSGSINYNEKFKDKATLTADKSSSTVYMDLSRLTSEDSAVYFCARREDRGGYDAFDYWGQGTTLTVSS VL: DIQMTQSPASLSVSVGETVTITCRTSENIYSNLAWYQQKQGKSPQLLVYAATKLADGVPSRFSGSGSGTQYSLRINSLQPEDFGSYYCQHFWGTPWTFGGGTKLEIK")
64.8

Kindly consider the entry below.
Inquiry: Consider the binder exemplary anti-CD28 antibody AB1 (antibody, V domains shown, Mouse hybridoma monoclonal antibody; also called antibody 1; clone 1) VH: QVHLQQSATELARPGASVKMSCKASGYTFTSYTMHWVKQRPGQGLEWIGYIDPGSGYSEFNHKFKDKSTLTADKSSSTAYMQLISLTSEDSAVYYCARRQDNSGYDSFDYWGQGTTLTVSS VL: DIQMTQSPASLSVSVGETVTITCRTSENIYSNLAWYQQKQGKSPQLLVYAATNLADGVSSRFSGSGSGIQYSLKINSLQSEDFGSYYCQHFWGIPWTFGGGTKLEIK and give its recorded % CD28+ population.
Reply text: 64.8
